tested on: Fibroblast; experiment: Incucyte cell viability with human fibroblast; format: toxicity, cell-based; settings: 6 h, 10 µM, compound concentration 10 uM, replicate number 1, timepoint 6 hours; note: filed as whole numbers so only -1 and 0 and 1 occur
This section presents compounds with their documented Growth Rate values.
Reply: number alone, nothing else.

1) Cc1ccc2[nH]c(CNCCCc3ccncc3)cc(=O)c2c1 [UCSF924NC]
0
2) CS(=O)(=O)N1CCCC(NC(=O)[C@H](CCC2CCCCC2)NC(=O)c2ccc(CNC(=O)c3cnc4ccccn34)cc2)C1 (some centres undefined) [SR-302]
1
3) CC(C)c1ccc(CC(=O)N2CCC[C@@H](c3cccc(OC(C)(C)C(=O)O)c3)C2)cc1
0
4) CCCCC#Cc1nc(NC)c2ncn([C@@H]3O[C@H](CO)[C@@H](O)[C@H]3O)c2n1
1
5) COc1cc(C#N)ccc1S(=O)(=O)Nc1ccc2c(c1)cc(C)c(=O)n2C
1
6) CC(Cc1ccc(O)c(O)c1)C(C)Cc1ccc(O)c(O)c1 (centres undefined) [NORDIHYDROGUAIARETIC ACID]
0
7) CC(C)NCC(O)COc1cccc2ccccc12.Cl (centres undefined) [PROPRANOLOL HYDROCHLORIDE]
1
8) C/C(=C/C=C/C(C)=C/C(=O)O)c1cc(C(C)(C)C)cc(C(C)(C)C)c1OCC(F)F
0

Continue with the compound presented below.
Exercise: Data request, read-out Growth Rate, for N#Cc1cccc(C(=O)Nc2cc(-c3ccccc3)nn2-c2ccccc2)c1
Solution: 0

---

system: Fibroblast; assay: Multiplex assay against human fibroblast; assay type: toxicity, cell-based; conditions: 48 h, 10 µM, compound concentration 10 uM, replicate 1
// Condition not met strictly below 60% in Population Apoptotic (%); Condition met otherwise

Exercise: Can CC(/C=C1\SC(=S)N(CCCC(=O)Nc2ccc(C(=O)O)c(O)c2)C1=O)=C\c1ccccc1 be said to have Population Apoptotic (%) at or above 60%?
Solution: Condition met

Exercise: Another compound to look at: Cc1c(Nc2ccc(S(=O)(=O)N3CCN(C)CC3)cc2F)nc2ccc(-c3cnn(C4CC4)c3)cn2c1=O
Solution: Condition not met

Exercise: Cool, now N#Cc1cccc(C(=O)Nc2cc(-c3ccccc3)nn2-c2ccccc2)c1
Solution: Condition not met

Exercise: Moving on to the next compound: CN1C(=O)[C@@H](NC(=O)c2cc3ccccc3[nH]2)N=C(c2ccccc2)c2ccccc21 [DEVAZEPIDE]
Solution: Condition met

Exercise: Next: CC(Cc1ccc(O)c(O)c1)C(C)Cc1ccc(O)c(O)c1 (centres undefined) [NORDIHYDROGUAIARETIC ACID]
Solution: Condition met

Exercise: Cool, now Cc1ccc(S(=O)(=O)NC2c3ccccc3Oc3ccccc32)cc1
Solution: Condition not met

Exercise: Now the compound CCCCN(CC)c1nc(C)nc2c1c(C)cn2-c1c(C)cc(C)cc1C.Cl
Solution: Condition met

Exercise: Continue with CCCc1cc(C)[nH]c(=O)c1CNC(=O)c1cc(-c2ccc(N3CCN(C(C)C)CC3)nc2)cc2c1cnn2C(C)C
Solution: Condition met

---

test system: Fibroblast; experiment: Multiplex assay against human fibroblast; format: toxicity, cell-based; conditions: 12 h, 1 µM, compound concentration 1 uM, replicate 2
assay_metric: Population Mitochondria Different-Phenotype (%)
Please state the figure in %; there is no need to write the unit.

1) CC(/C=C1\SC(=S)N(CCCC(=O)Nc2ccc(C(=O)O)c(O)c2)C1=O)=C\c1ccccc1
7
2) CCCc1cc(C)[nH]c(=O)c1CNC(=O)c1cc(-c2ccc(N3CCN(C(C)C)CC3)nc2)cc2c1cnn2C(C)C
91
3) CCOC(=O)CCNc1cc(N2CCc3ccccc3CC2)nc(-c2ccccn2)n1
11

Exercise: For Cc1c(Nc2ccc(S(=O)(=O)N3CCN(C)CC3)cc2F)nc2ccc(Nc3cnn(C4CC4)c3)cn2c1=O , what is its reported Population Mitochondria Different-Phenotype (%)?
Solution: 11

Exercise: Also N#CCNC(=O)c1ccc(-c2ccnc(Nc3ccc(N4CCOCC4)cc3)n2)cc1 [MOMELOTINIB] ?
Solution: 13

---

tested on: HEK-293T; assay: Multiplex assay against HEK293T; assay type: toxicity, cell-based; conditions: human, 24 h, 1 µM, compound concentration 1 uM, replicate 2
assay_metric: Population Pyknosed Nuclei (%)
Quick note: give the figure in %, leave out the unit.

1) Cc1c(Nc2ccc(S(=O)(=O)N3CCN(C)CC3)cc2F)nc2ccc(Nc3cnn(C4CC4)c3)cn2c1=O
7

Exercise: What Population Pyknosed Nuclei (%) value was documented for this compound, Oc1cccc(-c2nc(N3CCOCC3)c3oc4ncccc4c3n2)c1 ?
Solution: 64

Exercise: Would you mind doing CCOc1ccn(-c2ccc(F)cc2)c(=O)c1C(=O)Nc1ccc(Oc2ccnc(N)c2Cl)c(F)c1 as well?
Solution: 4

Exercise: Thanks! And Cl.Cn1c2c(c3ccc(Cl)c(Cl)c31)C(C#N)C1(CCNCC1)NC2=O (stereo unspecified) ?
Solution: 2

Exercise: Another compound: CC(Cc1ccc(O)c(O)c1)C(C)Cc1ccc(O)c(O)c1 (stereo unspecified) [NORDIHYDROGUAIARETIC ACID]
Solution: 46

Exercise: How about CC[C@@H]1C(=O)N(C)c2cnc(Nc3ccc(C(=O)NC4CCN(C)CC4)cc3OC)nc2N1C1CCCC1 ?
Solution: 31

---

Catalogue of Population Mitotic Cells (%) readings, one per entry.
test system: Fibroblast; assay: Multiplex assay against human fibroblast; assay type: toxicity, cell-based; details: 24 h, 10 µM, compound concentration 10 uM, replicate 2
Numbers only; they are read as %.

Take a look at these entries with their results.
1) Cc1c(P(=S)(c2ccccc2)c2ccccc2)n2ccccc2[n+]1C/C=C/c1ccccc1.[Br-]
0
2) CCOC(=O)CCNc1cc(N2CCc3ccccc3CC2)nc(-c2ccccn2)n1
0
3) CC[C@@H]1C(=O)N(C)c2cnc(Nc3ccc(C(=O)NC4CCN(C)CC4)cc3OC)nc2N1C1CCCC1
0
4) Oc1cccc(-c2nc(N3CCOCC3)c3oc4ncccc4c3n2)c1
49

Exercise: Given CCOc1ccn(-c2ccc(F)cc2)c(=O)c1C(=O)Nc1ccc(Oc2ccnc(N)c2Cl)c(F)c1 , state its recorded Population Mitotic Cells (%).
Solution: 50

---

tested on: Fibroblast; assay: Multiplex assay against human fibroblast; format: toxicity, cell-based; details: 48 h, 10 µM, compound concentration 10 uM, replicate 2
Cut-off 30% on Population Hoechst High Intensity Objects (%): below means Y, at or above means N.

1. C[C@@H](Oc1cc(-n2cnc3ccc(CN4CCN(C)CC4)cc32)sc1C(N)=O)c1ccccc1C(F)(F)F [GSK-461364]
N
2. N#Cc1cccc(C(=O)Nc2cc(-c3ccccc3)nn2-c2ccccc2)c1
N
3. CN1CCN(Cc2ccc(-c3cnc4[nH]cc(-c5ccc6[nH]ccc6c5)c4c3)cc2)CC1
N
4. CN(c1cc(C(F)(F)F)nc(OCCC(=O)O)n1)c1cccc2c1CCC2
Y

Exercise: API: query returns whether the molecule falls strictly under 30% in Population Hoechst High Intensity Objects (%). Query: CC(C)c1cc(Nc2nc(N3CCC[C@H](N)C3)ncc2C(N)=O)cc(C(C)C)n1
Solution: N

Exercise: Would you mind doing Cc1c(Nc2ccc(S(=O)(=O)N3CCN(C)CC3)cc2F)nc2ccc(-c3cnn(C4CC4)c3)cn2c1=O as well?
Solution: Y

Exercise: Similarly, CCCCN(CC)c1nc(C)nc2c1c(C)cn2-c1c(C)cc(C)cc1C.Cl ?
Solution: Y

Exercise: CN1C(=O)[C@@H](NC(=O)c2cc3ccccc3[nH]2)N=C(c2ccccc2)c2ccccc21 [DEVAZEPIDE] ?
Solution: Y

Exercise: Follow-up entry: N#CCNC(=O)c1ccc(-c2ccnc(Nc3ccc(N4CCOCC4)cc3)n2)cc1 [MOMELOTINIB]
Solution: Y

Exercise: Please answer likewise for Cl.NC[C@@H]1O[C@H](C23CC4CC(CC(C4)C2)C3)Cc2c1ccc(O)c2O
Solution: Y

---

Items are presented alongside their recorded Population Fragmented Nuclei (%).
test system: HEK-293T; assay: Multiplex assay against HEK293T; assay type: toxicity, cell-based; settings: human, 24 h, 1 µM, compound concentration 1 uM, replicate 2
Express the result in % but write the number alone.

Example entries and their recorded answers appear below.
1. Cc1c(Nc2ccc(S(=O)(=O)N3CCN(C)CC3)cc2F)nc2ccc(Nc3cnn(C4CC4)c3)cn2c1=O
6
2. CC(C)c1cc(Nc2nc(N3CCC[C@H](N)C3)ncc2C(N)=O)cc(C(C)C)n1
9
3. CN(c1cc(C(F)(F)F)nc(OCCC(=O)O)n1)c1cccc2c1CCC2
8

Exercise: What does the record list as Population Fragmented Nuclei (%) for NC(=O)c1ccc2nc(-c3ccc(C4(N)CCC4)cc3)c(-c3ccccc3)n2n1 ?
Solution: 19

Exercise: Record: C[C@@H](Oc1cc(-n2cnc3ccc(CN4CCN(C)CC4)cc32)sc1C(N)=O)c1ccccc1C(F)(F)F
Solution: 8

Exercise: What would you report for Cc1ccc(S(=O)(=O)NC2c3ccccc3Oc3ccccc32)cc1 ?
Solution: 8

Exercise: CC[C@@H]1C(=O)N(C)c2cnc(Nc3ccc(C(=O)NC4CCN(C)CC4)cc3OC)nc2N1C1CCCC1 ?
Solution: 2

Exercise: And for CCOc1ccn(-c2ccc(F)cc2)c(=O)c1C(=O)Nc1ccc(Oc2ccnc(N)c2Cl)c(F)c1 ?
Solution: 10

Exercise: Follow-up item: Cc1c(Nc2ccc(S(=O)(=O)N3CCN(C)CC3)cc2F)nc2ccc(-c3cnn(C4CC4)c3)cn2c1=O
Solution: 23

Exercise: Okay, and CCCCN(CC)c1nc(C)nc2c1c(C)cn2-c1c(C)cc(C)cc1C.Cl ?
Solution: 4

Exercise: Now this one: CN1C(=O)[C@@H](NC(=O)c2cc3ccccc3[nH]2)N=C(c2ccccc2)c2ccccc21 [DEVAZEPIDE]
Solution: 4

Exercise: Also N#Cc1cccc(C(=O)Nc2cc(-c3ccccc3)nn2-c2ccccc2)c1 ?
Solution: 6

Exercise: Would you mind doing C=CC(=O)Nc1cc(-n2c(=O)ccc3cnc4ccc(-c5ccc(NS(C)(=O)=O)cc5)cc4c32)ccc1C as well?
Solution: 9

Exercise: // next record CCCCCNC(=N)N/N=C/c1c[nH]c2ccc(OC)cc12.O=C(O)/C=C\C(=O)O [TEGASEROD MALEATE]
Solution: 4

Exercise: Please give the result for CC(Cc1ccc(O)c(O)c1)C(C)Cc1ccc(O)c(O)c1 (stereo not drawn) [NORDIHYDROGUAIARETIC ACID] too.
Solution: 5
